test system: Hs-578T; test: NCI tumour cell line growth inhibition, 48 h
Activity calls are given as the source filed them. Rule as the data show it: active = GI50 up to about 1.1 µM and inactive = higher.
metric.name: GI50

> print(dat)
                                   compound  metric.name              result
1  O=C(C1OC1c1cccc([N+](=O)[O-])c1)C12CC3CC(CC(C3)C1)C2 (stereo not drawn)         GI50  3.66 µM (inactive)
2  COc1ccc(C2Oc3c(cccc3OC)C=C2[N+](=O)[O-])cc1OC (stereo not drawn)         GI50  6.25 µM (inactive)

Let us examine a further case.
Asked: Hello, I am looking for reported GI50 with Hs-578T for O=c1c2ncn(C3CC(O)C(CO)O3)c2nnn1Cc1ccccc1[N+](=O)[O-] (stereo not drawn) . Could you help?
Given back: > 100 µM (inactive)

====

system: LXFL 529; assay: NCI tumour cell line growth inhibition, 48 h
Active and inactive are the calls of the source. Rule as the data show it: active = GI50 up to about 1.1 µM and inactive = higher.
Classes to choose from: y (active), n (inactive)

// known answers, use as guide
> print(dat)
                                   compound  class.label
1       C/C(=N\N=C(\N)S)c1ccc(Oc2ccccc2)cc1            n
2  O=C(CC1C(=O)Nc2ccccc2S1(=O)=O)Nc1cccc(Cl)c1 (centres undefined)            n
3              O=C1CCC(=O)C12CCc1cccc(O)c12            n

Asked: Could you please tell me the result logged for OC1CC(O)O[C@H](c2ccccc2)C1 (some centres undefined) in this assay?
Given back: n

Asked: Could you please tell me the result logged for COc1ccc(OC)c(NC(=O)C2=C(C)NC(C)=C(C(=O)Nc3cc(OC)ccc3OC)C2c2ccco2)c1 in this assay?
Given back: n

Asked: Could you please tell me the result logged for Cc1ccc(/C=C(\C#N)c2ccccc2)cc1 in this assay?
Given back: n

Asked: Could you please tell me the result logged for COc1cc2c3c(c1OCc1ccccc1)NCCC3NCC2 (centres undefined) in this assay?
Given back: n

Asked: Could you please tell me the result logged for COC(=O)C(=O)C(C#N)c1cccc(Cl)c1 (centres undefined) in this assay?
Given back: n

Asked: Could you please tell me the result logged for N/C(=C\c1ccc(OCc2ccccc2)c(OCc2ccccc2)c1[N+](=O)[O-])C(=O)O in this assay?
Given back: n

Asked: Could you please tell me the result logged for NC(CCc1ncc(-c2ccccc2)s1)C(=O)O (centres undefined) in this assay?
Given back: n

Asked: Could you please tell me the result logged for C/C(=N\NC(=S)N1CCCCCC1)c1ccccn1 in this assay?
Given back: y

Asked: Could you please tell me the result logged for CCCOP1(=O)C=CC(Cl)=C(C)C1 (centres undefined) in this assay?
Given back: n

Asked: Could you please tell me the result logged for CCCOC(=O)C1CCC(=O)N1C(=O)C(C)Cl (centres undefined) in this assay?
Given back: n

Asked: Could you please tell me the result logged for Cc1cc(C)nc(NS(=O)(=O)c2ccc(Nc3c4ccccc4nc4c(C(=O)N5CCN(CCO)CC5)cccc34)cc2)n1 in this assay?
Given back: n

====

system: TK-10; assay: NCI tumour cell line growth inhibition, 48 h
Activity calls are given as the source filed them. No stated cut-off is given here; in the data, active = GI50 up to about 1.1 µM and inactive = higher.
Classes to choose from: true = active, false = inactive

> print(dat)
                                   compound  experimental.target  class.label
1    CCOC(=O)N1CCN(c2ccc3c(C)cc(C)nc3n2)CC1                TK-10        false
2  C[C@]12CC[C@H]3[C@@H](CC[C@]4(O)C[C@@H](O)CC[C@]34C=O)[C@@]1(O)CC[C@@H]2C1=CC(=O)OC1 [STROPHANTHIDIN]                TK-10         true
3  C[N+](C)(C)CC(=O)N/N=C(\C(=O)NC1=C(Cl)C(=O)c2ccccc2C1=O)C(C#N)c1nc(-c2ccc([N+](=O)[O-])cc2)cs1 (stereo not given)                TK-10        false
4  COC(=O)C(=O)C(C#N)c1cccc(Cl)c1 (stereo not given)                TK-10        false
5  O=c1c2ncn(C3CC(O)C(CO)O3)c2nnn1Cc1ccccc1[N+](=O)[O-] (stereo not given)                TK-10        false

Asked: Could you please tell me the result logged for O=S(=O)(/N=c1/[nH]c2ccccc2n1S(=O)(=O)c1ccccc1)c1ccccc1 in this assay?
Given back: false

Asked: Could you please tell me the result logged for NC(CCC(=O)NC(CSC(=O)N(O)c1ccccc1)C(=O)NCC(=O)O)C(=O)O (stereo not given) in this assay?
Given back: false

Asked: Could you please tell me the result logged for Cc1ccc2c(c1)[nH]c(=S)n2C=C1C(=O)CC(C)(C)CC1=O in this assay?
Given back: false

Asked: Could you please tell me the result logged for COC(=O)/C=C/c1ccc2nncnc2c1.COC(=O)/C=C\c1ccc2nncnc2c1 in this assay?
Given back: false

Asked: Could you please tell me the result logged for COc1ccc(Cc2ccccc2C(=O)O)c2ccccc12 in this assay?
Given back: false

This collection of values is drawn from ChEMBL document CHEMBL1201862.
